Kindly state Viscosity for each of the entries shown.
assay: Viscosity by rheology (temperature ramp, cone-plate rheometer); type: physicochemical; conditions: 90°C, shear rate 60 s^-1
Give bare numbers, in mPa.s.

Guide cases for Viscosity, answers given:
# COMPOUND, MEAS_VALUE
measured = [
    ("C=C(C)C(=O)OC1CCCCC1OC(=O)C(C)(C)C (stereo not drawn)", 2),
    ("C=C(C)C(=O)OC1CCCCC1O (stereo not drawn) [Ex1, 2-hydroxycyclohexyl methacrylate]", 4),
    ("C=C(C)C(=O)OC1CCCCC1OC(=O)C(CC)CCCC (stereo not drawn)", 20),
]

Dear colleague, could you please provide Viscosity for the compounds listed below?
1. C=C(C)C(=O)OC1CCCCC1OC(=O)C1CCCCC1 (stereo not drawn)
2. C=C(C)C(=O)OC1CCCCC1OC(=O)Cc1ccccc1 (stereo not drawn)
3. C=C(C)C(=O)OCCO [Ref2, 2-hydroxyethylmethacrylate, reference compound]

Result:
1. 4
2. 8
3. 1

----------
Kindly state Viscosity for each of the entries shown.
assay: Viscosity by rheology (temperature ramp, cone-plate rheometer); assay type: physicochemical; conditions: 70°C, shear rate 60 s^-1
Give bare numbers, in mPa.s.

Guide cases for Viscosity, answers given:
# COMPOUND, QUANTITY_NAME, UNITS_OF_MEASURE, MEAS_VALUE
data = [
    ("C=C(C)C(=O)OC1CCCCC1OC(=O)C(C)(C)C (stereo not drawn)", "Viscosity", "mPa.s", 4),
    ("C=C(C)C(=O)OC1CCCCC1OC(=O)C1CCCCC1 (stereo not drawn)", "Viscosity", "mPa.s", 7),
]

Dear colleague, could you please provide Viscosity for the compounds listed below?
1. C=C(C)C(=O)OC1CCCCC1O (stereo not drawn) [Ex1, 2-hydroxycyclohexyl methacrylate]
2. C=C(C)C(=O)OCCO [Ref2, 2-hydroxyethylmethacrylate, reference compound]
3. C=C(C)C(=O)OC1CCCCC1OC(=O)Cc1ccccc1 (stereo not drawn)
4. C=C(C)C(=O)OC1CCCCC1OC(=O)C(CC)CCCC (stereo not drawn)

Result:
7
2
13
34

----------
experiment: Viscosity by rheology (temperature ramp, cone-plate rheometer); format: physicochemical; details: 50°C, shear rate 60 s^-1
QUANTITY_NAME: log10 Viscosity (log10 of the value in mPa.s)
Parameter value (number): base-10 log of Viscosity in mPa.s.

Guide cases for log10 Viscosity, answers given:
# COMPOUND, log10 Viscosity
data = [
    ("C=C(C)C(=O)OC1CCCCC1OC(=O)C(CC)CCCC (stereo not drawn)", 1.81),
    ("C=C(C)C(=O)OC1CCCCC1OC(=O)Cc1ccccc1 (stereo not drawn)", 1.49),
]

Dear colleague, could you please provide log10 Viscosity for the compounds listed below?
1. C=C(C)C(=O)OC1CCCCC1O (stereo not drawn) [Ex1, 2-hydroxycyclohexyl methacrylate]
2. C=C(C)C(=O)OC1CCCCC1OC(=O)C(C)(C)C (stereo not drawn)

Result:
1. 1.20
2. 0.78

Dear colleague, could you please provide log10 Viscosity for the compounds listed below?
1. C=C(C)C(=O)OCCO [Ref2, 2-hydroxyethylmethacrylate, reference compound]
2. C=C(C)C(=O)OC1CCCCC1OC(=O)C1CCCCC1 (stereo not drawn)

Result:
[0.48, 1.08]

----------
test: Viscosity by rheology (temperature ramp, cone-plate rheometer); type: physicochemical; conditions: 25°C (room temperature), shear rate 60 s^-1
Kindly state Viscosity for each of the entries shown.
Give bare numbers, in mPa.s.

Guide cases for Viscosity, answers given:
# COMPOUND, Viscosity (mPa.s)
data = [
    ("C=C(C)C(=O)OC1CCCCC1OC(=O)C(C)(C)C (stereo not drawn)", 13),
    ("C=C(C)C(=O)OCCO [Ref2, 2-hydroxyethylmethacrylate, reference compound]", 6),
    ("C=C(C)C(=O)OC1CCCCC1OC(=O)C(CC)CCCC (stereo not drawn)", 174),
    ("C=C(C)C(=O)OC1CCCCC1OC(=O)C1CCCCC1 (stereo not drawn)", 27),
    ("C=C(C)C(=O)OC1CCCCC1O (stereo not drawn) [Ex1, 2-hydroxycyclohexyl methacrylate]", 53),
]

Would you kindly look at the next entry?
Given item C=C(C)C(=O)OC1CCCCC1OC(=O)Cc1ccccc1 (stereo not drawn) , the value recorded as its Viscosity is 110
